Reported inhibition at 5 µM values for the following compounds.
- Target Or System: SARS-CoV-2 3CLpro (Severe acute respiratory syndrome coronavirus 2, UniProt P0DTD1)
- Method Summary: biochemical
- Assay type: biochemical
- Assay Setup: 4 h, sheet LOPAC_screen_w_protease; primary screen at 5 µM; mean of two replicates; read-out: mean (LOPAC screen with protease)
Use % as the unit, but write only the number.

In the examples that follow, each entry is paired with its recorded inhibition at 5 µM.
Compound	inhibition at 5 µM / %
CC[N+](CC)(CC)CCOc1ccc(/C=C/c2ccccc2)cc1	11.8
O=c1oc(Cl)c(Cl)c2ccccc12 [3,4-Dichloroisocoumarin, reference compound]	30.4

Looking up CN(N=O)c1cc(O)ccc1O [Dephostatin, reference compound] , I see its inhibition at 5 µM listed as 35.5

Query `O=C(N[C@@H](Cc1ccccc1)C(=O)CCl)OCc1ccccc1` yields inhibition at 5 µM of 100

Field inhibition at 5 µM (entry Oc1ccc(Cn2cc[nH]c2=S)cc1 [1-(4-Hydroxybenzyl)imidazole-2-thiol] ) reads 35.7

Looking up `COc1ccc(C(=O)N2CCCC2=O)cc1` , I found its inhibition at 5 µM recorded as 6.69

The compound listed as N[C@@H](Cc1c[nH]c2ccc(O)cc12)C(=O)O [5-Hydroxy-L-tryptophan] shows inhibition at 5 µM equal to 14.5

---

- Target Or System: SARS-CoV-2 3CLpro (Severe acute respiratory syndrome coronavirus 2)
- Method Summary: biochemical
- Assay type: biochemical
- Assay Setup: 4 h, sheet LOPAC_screen_w_protease; LOPAC1280 primary screen with protease, 5 µM compound; replicate 1; read-out: Replicate_1
Counter-ions that a name gives are not always drawn.
Grouping key: inhibition at 5 µM. Bins: bin A = under 4%, bin B = from 4% up to 5%, bin C = 5% and over

Example entries and their recorded answers appear below.
Molecule	Assigned Label
COCC(=O)O[C@]1(CCN(C)CCCc2nc3ccccc3[nH]2)CCc2cc(F)ccc2[C@@H]1C(C)C [Mibefradil dihydrochloride]	bin A
CC#C[C@]1(O)CC[C@H]2[C@@H]3CCC4=CC(=O)CCC4=C3[C@@H](c3ccc(N(C)C)cc3)C[C@@]21C	bin A
O=c1[nH]c2ccccc2n1CCCN1CCN(C(c2ccccc2)c2ccccc2)CC1 [Oxatomide]	bin B
c1ccc2c(CC3=NCCN3)cccc2c1 [Naphazoline hydrochloride]	bin B

Band assignment needed for COCCOC(=O)C1=C(C)NC(C)=C(C(=O)OC(C)C)C1c1cccc([N+](=O)[O-])c1 (stereo not drawn) please.
bin A

Please let me know in which category the item CC(=O)OCC1=C(C(=O)O)N2C(=O)[C@@H](NC(=O)Cc3cccs3)[C@H]2SC1 [Cephalothin sodium] belongs.
bin B

Category of CNC1(C)C2CCC(C2)C1(C)C (stereo not drawn) [Mecamylamine hydrochloride] , please.
bin C

# classify by inhibition at 5 µM band: NC(=O)C(=O)O [Sodium Oxamate]
bin B

Which class does S=C=Nc1cccc(C2(N3CCCCC3)CCCCC2)c1 [Metaphit methanesulfonate] fall in?
bin C

Consider `COC(=O)Nc1nc2ccc(C(=O)c3cccs3)cc2[nH]1` . To which inhibition at 5 µM class does it belong?
bin A

Which inhibition at 5 µM band matches `Cn1ccnc1` ?
bin B

Looking at Cc1ccccc1N1C(=O)c2cc(S(N)(=O)=O)c(Cl)cc2NC1C (stereo not drawn) , which class would you pick?
bin B

GET /class?item= CCOC(=O)C1=C(C)NC(=S)NC1c1cccc(O)c1 (stereo not drawn)
bin C

Exam item: assign COc1cc(NS(C)(=O)=O)ccc1Nc1c2ccccc2nc2ccccc12 [Amsacrine hydrochloride] to the correct category.
bin B

The entry to classify is `C[C@@H]1C(=O)NC2=Nc3cccc(Cl)c3CN21` ; which class holds it?
bin B
